molecular target: T1, human CD4 on human PBMCs (human, UniProt P01730 26-458); experiment: FACS, clonal hybridoma supernatant on PBMCs
T1 construct: whole, on cells; also called hCD4
readout: % CD4 Stain (%)
Answer format: numeric, % implied, no suffix.

{"binder": "75110_08K12A (antibody, V domains shown) VH: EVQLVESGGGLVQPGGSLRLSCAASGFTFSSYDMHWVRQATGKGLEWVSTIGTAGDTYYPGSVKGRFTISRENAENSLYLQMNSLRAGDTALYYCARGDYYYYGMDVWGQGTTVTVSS VL: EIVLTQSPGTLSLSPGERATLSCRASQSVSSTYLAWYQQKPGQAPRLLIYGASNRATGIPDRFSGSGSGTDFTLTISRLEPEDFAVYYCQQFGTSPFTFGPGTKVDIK", "unit": "%", "% CD4 Stain": 34.6}

Sample 75110_10K21A (antibody, V domains shown) VH: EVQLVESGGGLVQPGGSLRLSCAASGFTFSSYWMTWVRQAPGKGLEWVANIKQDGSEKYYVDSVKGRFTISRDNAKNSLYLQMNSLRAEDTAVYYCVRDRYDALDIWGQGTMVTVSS VL: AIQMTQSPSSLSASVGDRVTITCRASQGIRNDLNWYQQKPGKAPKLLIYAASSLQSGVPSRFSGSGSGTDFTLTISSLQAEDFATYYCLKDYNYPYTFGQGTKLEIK — what was its % CD4 Stain?
29
